Values from ChEMBL document CHEMBL3217612

Tested on: MRC5
Experiment: Cytotoxicity against human MRC5 cells after 48 hrs by XTT assay
Assay type: cell-based
Settings: MRC5, 48 h
reported property: IC50 (µM)

                                   compound  value_prefix  experimental_value
0  COc1cc2c(cc1O)oc(=O)c1c2c(-c2ccc(OC)c(OC)c2)c2c3cc(OC)c(O)cc3ccn21             >                97.4
1  COc1cc2c(cc1O)oc(=O)c1c2c(-c2ccc(OC)c(OC)c2)c2c3cc(OC)c(OC)c(O)c3ccn21             =                25.8
2  COc1ccc(-c2c3c4cc(OC)c(O)cc4oc(=O)c3n3ccc4c(O)c(OC)c(OC)cc4c23)cc1O             =                10.1
3  COc1cc(-c2c3c4cc(OC)c(O)cc4oc(=O)c3n3ccc4c(O)c(OC)c(OC)cc4c23)ccc1O             =                13.4
4  COc1ccc(-c2c3c4cc(OC)c(O)cc4oc(=O)c3n3ccc4cc(O)c(OC)cc4c23)cc1O             >                 100
5  COc1cc(-c2c3c4cc(OC)c(O)cc4oc(=O)c3n3ccc4cc(O)c(OC)cc4c23)ccc1O [LAMELLARIN D]             =                 9.2

====

Items are presented alongside their recorded IC50.
Assay: Cytotoxicity against human MOLT3 cells after 48 hrs by XTT assay
Format: functional, cell-based
Details: MOLT-3, 48 h
reported property: IC50 (nM)

>>> print(df.to_string())
                                   compound  reported_property  experimental_value
0  COc1cc(-c2c3c4cc(OC)c(O)cc4[nH]c(=O)c3n3ccc4cc(O)c(OC)cc4c23)ccc1O               IC50                  30
1  COc1cc(-c2c3c4cc(OC)c(O)cc4oc(=O)c3n3ccc4cc(O)c(OC)cc4c23)ccc1O [LAMELLARIN D]               IC50                  49

====

Tested on: MDA-MB-231
Test: Cytotoxicity against human MDA-MB-231 cells after 48 hrs by XTT assay
Assay type: functional, cell-based
Conditions: MDA-MB-231, 48 h
reported property: IC50 (nM)

>>> df
                           structure_string  target_entity  reported_property  experimental_value
0  COc1cc(-c2c3c4cc(OC)c(O)cc4oc(=O)c3n3ccc4cc(O)c(OC)cc4c23)ccc1O     MDA-MB-231               IC50                 400
1  COc1cc2c(cc1O)oc(=O)c1c2c(-c2ccc(OC)c(OC)c2)c2c3cc(OC)c(O)cc3ccn21     MDA-MB-231               IC50                 400
2  COc1ccc(-c2c3c4cc(OC)c(O)cc4oc(=O)c3n3ccc4cc(O)c(OC)cc4c23)cc1O     MDA-MB-231               IC50                 600
3  COc1ccc(-c2c3c4cc(OC)c(O)cc4oc(=O)c3n3ccc4c(O)c(OC)c(OC)cc4c23)cc1O     MDA-MB-231               IC50                  80
4  COc1cc2c(cc1O)oc(=O)c1c2c(-c2ccc(OC)c(OC)c2)c2c3cc(OC)c(OC)c(O)c3ccn21     MDA-MB-231               IC50                 300
5  COc1cc(-c2c3c4cc(OC)c(O)cc4oc(=O)c3n3ccc4c(O)c(OC)c(OC)cc4c23)ccc1O     MDA-MB-231               IC50                 100
